# ASSAY_SYSTEM: PRMT5/MEP50 complex (Homo sapiens)
# Construct: purchased Reaction Biology Corporation
# PROTOCOL_SUMMARY: PRMT5:MEP50 FlashPlate Assay (histone H4 peptide methylation)
# Format: biochemical
# CONDITION: IC50 + 2 μM MTA, plus 2 μM MTA, 40 nM H4 (1-15) peptide, 1 μM SAM
Counter-ions that a name gives are not always drawn.
Provide the recorded IC50 for the entries that follow.

Cn1c(N)nc2cc(Cc3cccnc3)cc(Cl)c21 [Example 2-10, hydrochloride]	97.6 µM
Cn1c(N)nc2cc(-c3cn[nH]c3)ccc21 [Example 1-60]	> 300 µM
CCn1c(N)nc2ncccc21 [Example 5-1, hydrochloride]	> 300 µM
Cn1ccc(-c2cccc3c2nc(N)n3C)n1 [Example 1-68]	> 300 µM

Here's the next entry for you.
stdin: Quick one: IC50 for Cn1c(N)nc2cc(Cc3ccncc3)cc(C#N)c21 [Example 3-4] ?
stdout: > 300 µM

----------
# ASSAY_SYSTEM: PRMT5/MEP50 complex (Homo sapiens, UniProt O14744)
# Construct: purchased Reaction Biology Corporation
# Sequence (O14744 2-637 limits assumed): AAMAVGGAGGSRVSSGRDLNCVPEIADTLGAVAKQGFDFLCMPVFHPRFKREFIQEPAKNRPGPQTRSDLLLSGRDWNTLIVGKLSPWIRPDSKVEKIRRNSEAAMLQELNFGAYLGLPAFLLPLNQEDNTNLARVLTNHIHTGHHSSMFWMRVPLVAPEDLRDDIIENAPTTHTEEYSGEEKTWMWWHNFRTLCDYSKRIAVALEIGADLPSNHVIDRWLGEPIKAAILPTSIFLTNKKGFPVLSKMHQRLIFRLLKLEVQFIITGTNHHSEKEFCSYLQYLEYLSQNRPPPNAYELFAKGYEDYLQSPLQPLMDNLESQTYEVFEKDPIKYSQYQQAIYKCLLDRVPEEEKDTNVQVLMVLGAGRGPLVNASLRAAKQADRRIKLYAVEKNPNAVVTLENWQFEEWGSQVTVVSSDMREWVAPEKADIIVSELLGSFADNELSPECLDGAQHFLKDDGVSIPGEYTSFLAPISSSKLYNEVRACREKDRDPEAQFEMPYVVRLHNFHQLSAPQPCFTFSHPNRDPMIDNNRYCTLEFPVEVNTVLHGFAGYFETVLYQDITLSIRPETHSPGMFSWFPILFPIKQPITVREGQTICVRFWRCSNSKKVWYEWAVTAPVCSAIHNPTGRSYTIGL
# Sequence (Q9BQA1 2-342 partner limits assumed): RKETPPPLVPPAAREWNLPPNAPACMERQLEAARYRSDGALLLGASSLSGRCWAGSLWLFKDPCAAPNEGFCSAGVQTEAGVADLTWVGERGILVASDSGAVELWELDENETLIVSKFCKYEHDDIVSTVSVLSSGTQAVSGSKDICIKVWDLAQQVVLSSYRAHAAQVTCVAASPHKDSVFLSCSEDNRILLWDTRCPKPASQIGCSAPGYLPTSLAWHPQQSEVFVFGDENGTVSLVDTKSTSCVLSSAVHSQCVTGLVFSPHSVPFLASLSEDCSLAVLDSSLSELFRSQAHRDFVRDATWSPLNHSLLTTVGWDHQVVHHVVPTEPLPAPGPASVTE
# PROTOCOL_SUMMARY: PRMT5:MEP50 FlashPlate Assay (histone H4 peptide methylation)
# Assay type: biochemical
# CONDITION: absence of MTA, 40 nM H4 (1-15) peptide, 1 μM SAM, read-out: IC50
pIC50: −log10 of the molar value. Counter-ions that a name gives are not always drawn.
MEASURE_NAME: pIC50

Take a look at these entries with their results.
CN(c1cccnc1)c1cc(Cl)c2c(c1)nc(N)n2C [Example 2-9, hydrochloride]	< 3.52
Cn1ncc(-c2cccc3c2nc(N)n3C)c1-c1ccccc1C#N [Example 1-87, hydrochloride]	< 3.52
Cn1nnc(CNc2cc(C#N)c3c(c2)nc(N)n3C)c1C(F)F	3.81
Cn1cc(Cc2cc(C#N)c3c(c2)nc(N)n3C)cn1	< 3.52
Cn1c(N)nc2c(-c3cnoc3)ccc(Cl)c21	< 3.52

Value sought for every listed compound: pIC50.
1. CC(=O)N(Cc1cc(C#N)c2c(c1)nc(N)n2C)c1ccc2ccccc2c1C#N
2. CCn1cnnc1CNc1cc(C#N)c2c(c1)nc(N)n2C
3. Cn1ncc(-c2ccc(Cl)c3c2nc(N)n3C)c1-c1c(F)cc2ccccc2c1C#N [Example 2-2, hydrochloride]
4. CCn1c(N)nc2ncccc21 [Example 5-1, hydrochloride]
5. CCc1cc(-c2cnn(C)c2-c2ccccc2C#N)c2nc(N)n(C)c2c1 [Example 6-3, hydrochloride]
6. Cn1c(N)nc2cc(Oc3cccnc3)cnc21
7. Cn1c(N)nc2c(C3CCOC3)ccc(Cl)c21 (stereo not shown) [Example 2-8, hydrochloride]
8. Cn1c(N)nc2cc(Cc3ccccn3)cc(C#N)c21

stdout:
5.61
3.55
4.97
< 3.52
3.70
< 3.52
< 3.52
3.87

----------
Exercise: for every item that follows, state its recorded IC50.
# ASSAY_SYSTEM: PRMT5/MEP50 complex (Homo sapiens)
# Construct: purchased Reaction Biology Corporation
# PROTOCOL_SUMMARY: PRMT5:MEP50 FlashPlate Assay (histone H4 peptide methylation)
# Type: biochemical
# CONDITION: IC50 + 2 μM MTA, plus 2 μM MTA, 40 nM H4 (1-15) peptide, 1 μM SAM
Structures can show the parent of a compound that is named as a salt.
Numbers only, in µM.

Nc1nc2ncccc2n1Cc1ccccc1 [Example 5-2, hydrochloride]	76.2
Cn1ncc(-c2cccc3c2nc(N)n3C)c1-c1ccccc1C#N [Example 1-87, hydrochloride]	17.9

For each entry beneath this line, provide reported IC50.
1. CC(=O)N(Cc1cc(C#N)c2c(c1)nc(N)n2C)c1ccc2ccccc2c1C#N
2. Cn1c(N)nc2cc(-c3occc3C#N)ccc21

stdout:
0.006
34.5

----------
# ASSAY_SYSTEM: PRMT5-MEP50 (Homo sapiens)
# Construct: biotin (in vivo biotinylated)
# Sequence (O14744 whole entry): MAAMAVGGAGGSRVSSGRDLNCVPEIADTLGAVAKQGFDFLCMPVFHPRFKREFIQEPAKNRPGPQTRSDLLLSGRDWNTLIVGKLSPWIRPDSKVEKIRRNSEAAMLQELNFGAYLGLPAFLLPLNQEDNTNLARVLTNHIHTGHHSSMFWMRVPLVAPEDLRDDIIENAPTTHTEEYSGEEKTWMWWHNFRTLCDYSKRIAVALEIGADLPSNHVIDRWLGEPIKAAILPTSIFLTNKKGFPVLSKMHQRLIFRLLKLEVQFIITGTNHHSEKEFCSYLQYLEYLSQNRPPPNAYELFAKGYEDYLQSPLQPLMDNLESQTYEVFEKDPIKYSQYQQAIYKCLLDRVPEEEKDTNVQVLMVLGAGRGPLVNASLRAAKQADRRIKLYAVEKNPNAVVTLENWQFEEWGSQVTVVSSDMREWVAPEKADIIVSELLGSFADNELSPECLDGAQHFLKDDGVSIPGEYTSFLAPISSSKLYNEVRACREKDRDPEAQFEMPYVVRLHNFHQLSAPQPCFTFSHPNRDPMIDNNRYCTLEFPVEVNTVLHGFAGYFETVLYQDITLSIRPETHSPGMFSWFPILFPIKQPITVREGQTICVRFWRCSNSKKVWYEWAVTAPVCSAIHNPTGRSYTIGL
# Sequence (Q9BQA1 whole entry partner): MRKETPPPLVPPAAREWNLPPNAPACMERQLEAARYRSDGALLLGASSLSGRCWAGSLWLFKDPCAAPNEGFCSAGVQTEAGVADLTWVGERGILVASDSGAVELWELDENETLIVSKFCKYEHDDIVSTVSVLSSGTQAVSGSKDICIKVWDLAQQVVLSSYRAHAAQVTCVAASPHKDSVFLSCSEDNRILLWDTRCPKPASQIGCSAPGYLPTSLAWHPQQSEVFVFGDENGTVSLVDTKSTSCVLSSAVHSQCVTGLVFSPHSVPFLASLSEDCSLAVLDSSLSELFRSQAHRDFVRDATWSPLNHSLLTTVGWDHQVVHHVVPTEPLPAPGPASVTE
# PROTOCOL_SUMMARY: SPR binding assay (PRMT5.MTA and PRMT5·SAM surfaces)
# CONDITION: PRMT5.MTA surface, MTA running buffer (20 µM MTA), steady-state fit; read-out: KD MTA
Counter-ions that a name gives are not always drawn.
Answer each item with its documented pKd.
Numbers only, as −log10 of the molar value.

Please review the entries below; each comes with its answer.
CN(Cc1nnc2n1CCOC2)c1ccc2c(c1)nc(N)n2C [Example 1-83]	7.05
CN(c1cccnc1)c1cc(Cl)c2c(c1)nc(N)n2C [Example 2-9, hydrochloride]	4.18
Cn1c(N)nc2c(Nc3cnc4c(c3)CCCC4)ccc(C#N)c21 [Example 3-30]	4.77
Cn1cc(-c2ccc3c(c2)nc(N)n3C)cn1 [Example 1-53]	4.35

Next:
stdin: Which pKd is reported for this compound? Cn1c(N)nc2cc(Cc3ccccn3)cc(C#N)c21 [Example 3-3]
stdout: 6.73

----------
Assignment: determine reported IC50 for the given molecules.
# ASSAY_SYSTEM: PRMT5/MEP50 complex (Homo sapiens)
# Construct: purchased Reaction Biology Corporation
# PROTOCOL_SUMMARY: PRMT5:MEP50 FlashPlate Assay (histone H4 peptide methylation)
# Assay type: biochemical
# CONDITION: IC50 + 2 μM MTA, plus 2 μM MTA, 40 nM H4 (1-15) peptide, 1 μM SAM
Answers are plain numbers, in µM.

Can you give me IC50 for all of these, one by one?
1. Cn1ncc(-c2cc(Cl)cc3c2nc(N)n3C)c1-c1ccccc1C#N
2. Cn1c(N)nc2cc(Cc3ccccn3)cc(C#N)c21

stdout:
14
17.6

----------
# ASSAY_SYSTEM: PRMT5/MEP50 complex (Homo sapiens)
# Construct: purchased Reaction Biology Corporation
# PROTOCOL_SUMMARY: PRMT5:MEP50 FlashPlate Assay (histone H4 peptide methylation)
# Type: biochemical
# CONDITION: IC50 + 2 μM MTA, plus 2 μM MTA, 40 nM H4 (1-15) peptide, 1 μM SAM
pIC50: −log10 of the molar value. Where a name gives a salt, the structure may show the parent alone.
MEASURE_NAME: pIC50

Please review the following examples before continuing.
Cn1c(N)nc2c(Nc3cnn(CCN4CCCC4=O)c3)cccc21	< 3.52
Cc1cc(-c2cnn(C)c2-c2ccccc2C#N)c2nc(N)n(C)c2c1 [Example 6-2, hydrochloride]	4.53
Cn1cc(-c2ccc(Cl)c3c2nc(N)n3C)cn1 [Example 2-1, hydrochloride]	< 3.52

Return reported pIC50 values for all items listed beneath this line.
1. Cc1cc(-c2cccc3c2nc(N)n3C)cnc1O
2. Cn1c(N)nc2cc(-c3cncnc3)ccc21

stdout:
["< 3.52", "< 3.52"]

// for each compound in input: emit pIC50
1. Cn1cc(-c2cccc3c2nc(N)n3C)ccc1=O
2. Cn1nc(-c2cc(C#N)c3c(c2)nc(N)n3C)c2cnccc21
3. Cc1nn(C(C)C)cc1Nc1cccc2c1nc(N)n2C
4. Cn1c(N)nc2c(-c3cnoc3)ccc(Cl)c21

stdout:
< 3.52
< 3.52
< 3.52
< 3.52

I have 3 compounds here; please give me pIC50 for each one.
1. Cn1c(N)nc2cc(-c3cccnc3)ccc21
2. CCc1cc(-c2cnn(C)c2-c2ccccc2C#N)c2nc(N)n(C)c2c1 [Example 6-3, hydrochloride]
3. Cn1ncc(-c2ccc(Cl)c3c2nc(N)n3C)c1-c1c(F)cc2ccccc2c1C#N [Example 2-2, hydrochloride]

stdout:
< 3.52
4.75
6.28

----------
What pIC50 was measured for each of the following?
# ASSAY_SYSTEM: PRMT5/MEP50 complex (Homo sapiens, UniProt O14744)
# Construct: purchased Reaction Biology Corporation
# PROTOCOL_SUMMARY: PRMT5:MEP50 FlashPlate Assay (histone H4 peptide methylation)
# Assay type: biochemical
# CONDITION: IC50 + 2 μM MTA, plus 2 μM MTA, 40 nM H4 (1-15) peptide, 1 μM SAM
pIC50: −log10 of the molar value.

Would you please look over these solved cases?
Cn1c(N)nc2cc(C(=O)c3cccnc3)cc(C#N)c21	< 3.52
Cn1cc(Cc2cc(C#N)c3c(c2)nc(N)n3C)cn1	4.35
Cn1c(N)nc2c(-c3cncnc3)cccc21	< 3.52

Below are some compounds; for each one, tell me its pIC50.
1. CN1CCOC(Cc2ccc(Cl)c3c2nc(N)n3C)C1 (stereo not shown)
2. Cn1c(N)nc2c(-c3ccccc3)cccc21
3. Cc1ncccc1-c1ccc2c(c1)nc(N)n2C
4. Cn1c(N)nc2cc(Oc3cccnc3)cnc21

stdout:
1: < 3.52; 2: < 3.52; 3: < 3.52; 4: < 3.52

----------
# ASSAY_SYSTEM: PRMT5/MEP50 complex (Homo sapiens)
# Construct: purchased Reaction Biology Corporation
# PROTOCOL_SUMMARY: PRMT5:MEP50 FlashPlate Assay (histone H4 peptide methylation)
# Assay type: biochemical
# CONDITION: IC50 + 2 μM MTA, plus 2 μM MTA, 40 nM H4 (1-15) peptide, 1 μM SAM
What IC50 was measured for each of the following?

Cc1nnc(CN(C)c2cccc3c2nc(N)n3C)n1C	> 300 µM
Cn1c(N)nc2c(Nc3cnccn3)cccc21	> 300 µM

Alright, here's another compound for you.
stdin: Given the compound Cc1ncc(CNc2cccc3c2nc(N)n3C)n1-c1ccccc1 , what is its reported IC50?
stdout: > 300 µM
